# study-system: MUC1 5TR (five tandem repeat recombinant MUC1, unglycosylated) (Homo sapiens, UniProt P15941 P15941:161-260)
# Sequence (P15941 141-240, one chain of several): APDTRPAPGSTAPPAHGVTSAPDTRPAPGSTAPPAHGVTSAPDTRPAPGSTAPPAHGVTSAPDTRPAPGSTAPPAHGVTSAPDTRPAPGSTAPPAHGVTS
# protocol-summary: SPR; 100 mM NaCl, 5 mM MgCl2, pH 7.4; printed ka 0.207e7, kd 0.00098 would give 0.47 nM
# condition-notes: tags: 6xHis; expressed in E. coli BL21; biotin-XX labelled for SPR; about 11.8 kDa
# Method: Biotinylated 5TR-MUC1 protein was immobilised on a BIAcore SA sensor chip (gold-streptavidin) and the system was optimised to reduce mass transport, steric hindrance, crowding, avidity and aggregation. […] The concentration of free aptamer was assumed to be constant since an excess amount was applied to the system when compared to the amount of MUC1. […] The Kd was calculated from the following relationship: Kd is equal to kd/kₐ. […]
attribute-measured: pKd
Entry type: numeric. Quantity: pKd, the -log10 of concentration in molar units.

Field request: pKd | item: GAAGTGAAAATGACAGAACACAACA (ssDNA) [MUC1 5TR-1]
7.33

Where these numbers come from: patent US20090286854A1
